System: P. falciparum stage V gametocytes
Design: BacTiter-Glo ATP luminescence viability of purified stage V gametocytes in 384-well plates, per cent inhibition versus DMSO
Settings: 48 h, 5 µM; inhibitor
Among all 13,000 compounds or so, about 3,200 (25%) showed an effect of 50% or more. The list shows a part of the results.
quantity kind: % Inhibition (%)

molecule	measurement
O=C(Cn1c(SCc2cccc(F)c2F)cc(=O)c2ccccc21)N(Cc1ccc(-c2ccc(C(F)(F)F)cc2)cc1)C1CCN(CCO)CC1	107.3
CN1CCN(c2ccnc3ccc(NC(=O)Nc4c(Cl)cccc4Cl)cc23)CC1	-27.77
Cc1nc(N)nc(N)c1-c1ccc(Cl)c(Cl)c1	6.997
CCOc1ccc2nc(C)cc(NN=Cc3ccccc3[N+](=O)[O-])c2c1	91.47
O=C(NC(=S)NCc1ccncc1)c1ccccc1	-6.445
Cc1ccc2nc(C)cc(NN=Cc3ccc(Cl)cc3)c2c1	-8.095
CC[C@@]1(O)C(=O)OCc2c1cc1n(c2=O)Cc2c-1nc1cc3c(cc1c2CN1CCOCC1)OCO3	7.387
Cc1cccc2nc(-c3cccc(-c4cccc(CNCCc5ccncc5)c4)c3)[nH]c12.O=C(O)C(F)(F)F	3.347
CC(C)(C)OC(=O)NCc1ccc(Nc2nnc(-c3ccc(OCC(=O)NCc4ccc(C(C)(C)C)cc4)c([N+](=O)[O-])c3)o2)cc1	114.3
COC(=O)Cn1c(C2CCN(CC3CCN(C(=O)/C=C/c4ccc(Cl)c(Cl)c4)CC3)CC2)nc2ccccc21	2.762
O=S(=O)(NCCN1CCCC1)c1ccc(-c2cccc(CNCc3ccsc3)c2)s1	102.4
COc1ccc(NC(=O)/C=C/c2ccc(Cl)c(Cl)c2)cc1N1CCN(C)CC1	-34.01
CN1CCN(c2cccc(-c3nnc(-c4ccc(OCC(=O)NCc5ccc(C(F)(F)F)cc5)c([N+](=O)[O-])c4)o3)c2)CC1	2.294
CC1(C)[C@H]2CC[C@@H](CNc3nc(NCCc4cnc[nH]4)nc(Nc4ccc(Oc5ccccc5)cc4)n3)[C@@H]1C2	-37.07
Cc1cc(Oc2cc(NC(=O)c3sc4ncn(Cc5ccccc5F)c(=O)c4c3C)cc([N+](=O)[O-])c2)ccc1Cl	16.56
Cc1ccc2nc(C)cc(N/N=C/c3ccc([N+](=O)[O-])cc3)c2c1	109.1
CCN1CCC(N(Cc2ccc(-c3ccc(C(F)(F)F)cc3)cc2)C(=O)Cn2c(SCc3cccc(F)c3F)cc(=O)c3ccccc32)C1 (stereo not shown)	106.2
COc1ccc2nc(C)cc(NN=Cc3ccccc3[N+](=O)[O-])c2c1	48.43
O=C(Nc1ccc(C(F)(F)F)cc1)NC1CCN(c2ccnc3cc(Cl)ccc23)C1 (stereo not shown)	-22.97
CC(C)(C)OC(=O)NCc1ccc(Nc2nnc(-c3ccc(OCC(=O)NC[C@@H]4CC[C@H]5C[C@@H]4C5(C)C)c([N+](=O)[O-])c3)o2)cc1	110.7
COc1ccc2nc(C)cc(NN=Cc3ccc([N+](=O)[O-])o3)c2c1	11.78
CCCC(C)Nc1nc(C)cc(N[C@@H](CC(C)C)C(=O)NCCOc2ccccc2)n1 (stereo partly shown)	-16.46
O=S(=O)(NCCN1CCCC1)c1ccc(-c2ccc(CNCc3ccsc3)cc2)s1	78.64
CC(C)(C)c1ccc(CNC(=O)COc2ccc(-c3nnc(-c4cccc([N+](=O)[O-])c4)o3)cc2[N+](=O)[O-])cc1	-5.433
CN(C)c1ccc(C(c2ccc(N(C)C)cc2)c2cc([N+](=O)[O-])ccc2Cl)cc1	-4.747
O=C(Nc1ccc(C(F)(F)F)cc1)Nc1ccccc1N1CCNCC1	29.85
Cc1ccc(CNC(=O)c2ccc(CN3CCCN(Cc4ccsc4)CC3)cc2)cc1	11.88
COc1ccc(OC)c(NC(=O)CSc2nc(-c3ccccc3Cl)ns2)c1	60.03
COCCN1CCC(N(CC2(O)CCN(c3ccc(C(F)(F)F)cc3)CC2)C(=O)Cn2c(SCc3cccc(F)c3F)cc(=O)c3ccccc32)CC1	101.7
O=C(Nc1ccc(Cl)c(Cl)c1)Nc1ccccc1N1CCNCC1	92.01
Cc1ccc2nc(C)cc(N/N=C/c3ccccc3[N+](=O)[O-])c2c1	-3.364

From: paper PMC4552634
